System: Human papillomavirus type 1a protein E7 (residues 44-93)
Assay: HPV1a E7 fragment binders on microarrays, primary screen, biochemical, small-molecule microarray, residues 44-93, 635 nm fluorescence (AID 1108);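 also: E7 fragment applied at 1 µg/mL in TBST for 1 h at 4 C; score combines spot fluorescence with its signal to noise ratio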
Conditions: small-molecule microarray binding, fluorescence 635 nm; higher = more signal
For each of the molecules below, state its composite z-score.
One number for each entry.

Record composite z-score for all entries; do not skip any.
1. C=C(C(=O)CC[C@H](OC(=O)c1ccccc1-c1ccccc1C(=O)O)c1ccc(CO)o1)C(C)C
2. C[N+](C)(C)CCCC[C@@H]1NC(=O)[C@H]2C[C@@H](C(=O)NCc3ccc(F)cc3)[C@@H](c3cccc(OCCO)c3)N2C1=O
3. CO[C@H]1O[C@H](CO)[C@@H](OC(=O)Nc2ccccc2)[C@H](OC(=O)Nc2ccc3c(c2)OCO3)[C@@H]1OC(=O)Nc1ccc2c(c1)OCO2

Ans.
[1.24, 0.276, 1.32]

* * *

Experiment: PSAC antagonists in infected red cells, primary screen, cell-based, P. falciparum Indochina, OD700, 18 h (AID 1157)
Conditions: P. falciparum Indochina infected erythrocytes, osmotic lysis OD700, 18 h; higher = more signal, called active from +8 up or from −8 down
Binary classification by z-score, with -0.8 as an inclusive lower bound for Fulfilled; all other cases are Not fulfilled.

>  <Compound>
O=C1C2C=CC(C(O)c3ccccc3)N(n3cnnc3)C2C(=O)N1Cc1ccccc1 (stereo unspecified)

>  <Label value>
Not fulfilled

$$$$
>  <Compound>
COCCCNC(=O)[C@@]1(c2ccc([N+](=O)[O-])cc2)CC(=O)N(C2CCCCC2)[C@@H]1c1ccc(CO)cc1

>  <Label value>
Fulfilled

$$$$

Qu. Textbook exercise: given the entry C=C(CCCC)/C(=C/C[C@@H](OC(=O)c1ccncc1)c1cccc(OCCO)c1)c1cc(C(=O)OC)ccc1OC , state whether its z-score is greater than or equal to -0.8.
Ans. Fulfilled

Qu. Entry O=C1c2ccccc2[C@](Cc2ccccc2I)(C(=O)NCc2ccccc2)[C@H](c2ccc(CO)cc2)N1Cc1ccccc1C(F)(F)F : is its z-score no less than -0.8?
Ans. Not fulfilled

Qu. Check this compound for z-score at or above -0.8: CO[C@@H]1COC(=O)CC=C[C@H](C)COC(=O)[C@H](Cc2ccccc2)NC(=O)CC=C[C@H]1C
Ans. Not fulfilled

* * *

Target: Dihydroorotate dehydrogenase (quinone), mitochondrial (Plasmodium falciparum (isolate 3D7)) (UniProt Q08210)
Sequence (Q08210 whole entry, looked up): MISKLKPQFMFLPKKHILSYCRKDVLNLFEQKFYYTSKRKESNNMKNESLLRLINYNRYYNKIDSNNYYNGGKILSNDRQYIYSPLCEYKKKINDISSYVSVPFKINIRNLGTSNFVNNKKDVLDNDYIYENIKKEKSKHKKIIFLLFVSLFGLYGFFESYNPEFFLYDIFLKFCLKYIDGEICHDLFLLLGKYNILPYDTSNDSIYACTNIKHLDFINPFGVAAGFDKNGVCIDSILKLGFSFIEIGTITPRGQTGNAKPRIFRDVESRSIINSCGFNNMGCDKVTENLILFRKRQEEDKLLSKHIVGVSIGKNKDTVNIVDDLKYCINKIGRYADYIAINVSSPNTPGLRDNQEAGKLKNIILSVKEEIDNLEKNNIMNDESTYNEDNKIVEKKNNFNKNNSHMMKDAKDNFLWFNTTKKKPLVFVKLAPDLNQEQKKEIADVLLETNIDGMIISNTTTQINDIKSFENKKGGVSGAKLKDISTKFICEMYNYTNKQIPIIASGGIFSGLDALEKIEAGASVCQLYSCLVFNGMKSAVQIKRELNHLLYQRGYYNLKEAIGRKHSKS
Test: PfDHODH enzyme inhibitors, primary screen, biochemical, C-terminal His tag, absorbance 600 nm (AID 1175);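 also: recombinant parasite enzyme with a five histidine tag at its C terminus; test concentration not given here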
Conditions: DCIP absorbance 600 nm, higher = more signal, called active from +8 up or from −8 down
Please note: Fulfilled applies when composite z-score is 0.1 or greater, and Not fulfilled applies otherwise.

>  <Compound>
C[C@H]1NC(=O)[C@@H](C)NC(=O)[C@@]23C(=O)N[C@@H](Cc4ccccc4)C2[C@H](C)[C@@]2(C)O[C@H]2C3/C=C/C/C=C\CNC1=O (stereo partly drawn)

>  <Label value>
Fulfilled

$$$$
>  <Compound>
C=CCNC(=O)[C@H]1[C@@H]2C(=O)O[C@@H](c3ccccc3)[C@@H](c3ccccc3)N2[C@@H](c2ccccc2OCCO)[C@]12C(=O)N(C(=O)OCCOC)c1ccc(C#CCNC(N)=O)cc12

>  <Label value>
Not fulfilled

$$$$
>  <Compound>
CO[C@H]1COC(=O)[C@@H](C)COC(=O)[C@H](Cc2ccccc2)NC(=O)CC=C[C@H]1C

>  <Label value>
Fulfilled

$$$$
>  <Compound>
O=C1C2C=CC(C(O)C(c3ccccc3)c3ccccc3)N(Nc3ccc([N+](=O)[O-])cc3)C2C(=O)N1c1ccccc1 (stereo not drawn)

>  <Label value>
Fulfilled

$$$$
>  <Compound>
C=CC[C@]1(C(=O)N2CCCCC2)N=C(c2ccc(OCCCO)cc2)O[C@H]1c1ccccc1N=[N+]=[N-]

>  <Label value>
Fulfilled

$$$$
>  <Compound>
C=C(CCCC)C(=O)CC[C@@H](OC(C)=O)c1ccccc1OCCO

>  <Label value>
Not fulfilled

$$$$
>  <Compound>
[N-]=[N+]=NCc1ccccc1C[C@]1(C(N)=O)N=C(c2ccc(OCCCO)cc2)O[C@H]1c1ccccc1CN=[N+]=[N-]

>  <Label value>
Not fulfilled

$$$$
>  <Compound>
CO[C@@H]1COC(=O)[C@H](C)NC(=O)CC=C[C@@H](C)[C@H](NS(=O)(=O)c2ccc(C)cc2)COC(=O)CC=C[C@@H]1C

>  <Label value>
Fulfilled

$$$$

Qu. Would you say CO[C@H]1COC(=O)CC=C[C@@H](C)COC(=O)[C@@H](C)NC(=O)CC=C[C@@H]1C shows composite z-score at minimum 0.1?
Ans. Not fulfilled

Qu. Could you tell me if the measured composite z-score of COc1cccc([C@H]2N[C@H](C(=O)O)CC[C@@H]2C)c1 reaches 0.1 or more?
Ans. Not fulfilled

Qu. Answer whether composite z-score of COc1ccc(C(O)C2C=CC3C(=O)N(C)C(=O)C3N2N2CCCCC2)cc1OCc1ccccc1 (stereo not drawn) is greater than or equal to 0.1.
Ans. Fulfilled

Qu. Determine whether this compound has composite z-score no lower than 0.1: COc1ccc(-c2ccccc2[C@@H]2N[C@H](C(=O)O)CC[C@H]2C)cc1
Ans. Fulfilled

Qu. Reported composite z-score at or above 0.1? O=C(CS)NCCCCCCNC(=O)[C@@H]1C[C@@H]2C(=O)N[C@@H](Cc3ccccc3)C(=O)N2[C@@H]1c1ccc(O)cc1
Ans. Fulfilled

Qu. Textbook exercise: given the entry CN1C(=O)C2C=CC(C(O)C3CC=CCC3)N(Nc3ccccc3)C2C1=O (stereo not drawn) , state whether its composite z-score is greater than or equal to 0.1.
Ans. Not fulfilled

Qu. Decide: is the reported value of composite z-score for NC(=O)NCC#Cc1ccc2c(c1)[C@]1(C(=O)N2)[C@H](c2ccccc2OCCO)N2[C@H](c3ccccc3)[C@H](c3ccccc3)OC(=O)[C@H]2[C@@H]1C(=O)N1CCN(c2ncccn2)CC1 equal to or greater than 0.1?
Ans. Not fulfilled

Qu. Reported composite z-score reaches at least 0.1 for COC(=O)[C@@]1(Cc2ccc(OC)cc2)[C@H]2c3cc(C(=O)N(C)C)n(CCc4ccc(OC)c(Br)c4)c3C[C@H]2CN1C(=O)c1ccccc1 ?
Ans. Fulfilled

Qu. Can Cc1ccc(N2C(=O)c3ccccc3[C@@H](C(=O)NCC(F)(F)F)[C@@H]2c2ccc(CO)cc2)nc1 be said to have composite z-score at or above 0.1?
Ans. Not fulfilled

Qu. Does the reported composite z-score for CCC(=O)[C@]12O[C@@]3([C@@H]4C(=O)OCC[C@@H]41)N(Cc1ccccc1)C(C)=C(C(=O)OC)[C@@H](c1ccccc1)N3C2=O fall at or above the 0.1 mark?
Ans. Not fulfilled

Qu. Has COC(=O)C[C@H]1O[C@]2(C(=O)N(C)c3ccccc32)[C@@H](C)[C@@H]1[Si](C)(C)c1ccc(OC)cc1 a recorded composite z-score greater than or equal to 0.1?
Ans. Fulfilled

Qu. Hi, just wondering whether C=C(C)[C@@H]1CC=C(C(O)C2C=CC3C(=O)NC(=O)C3N2Nc2ccccn2)CC1 (stereo partly drawn) shows composite z-score of 0.1 or higher.
Ans. Fulfilled

* * *

Give measured z-score for each item. Keep answers brief.
Test: E. coli DRC41 culture turbidity changes, primary screen, E. coli filamentation inducer project, strain DRC41, OD650, 48 h (AID 1152);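 also: E. coli MC1000 strain DRC41 lacking acrAB efflux pump and sulA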
Conditions: E. coli DRC41 (acrAB sulA), higher = more signal, called active from +8 up or from −8 down
Numbers only.

Previously resolved entries follow.
>  <Molecule>
C=C(COC)/C(=C/C[C@H](OC(C)=O)c1ccc(OCCO)cc1)c1cnc2ccccc2c1

>  <Measured value>
1.25

$$$$
>  <Molecule>
CN(C)C(=O)[C@@]1(Cc2ccccc2N=[N+]=[N-])N=C(c2ccc(OCCCO)cc2)O[C@H]1c1ccccc1CN=[N+]=[N-]

>  <Measured value>
1.04

$$$$
>  <Molecule>
O=C(NCc1ccccc1)[C@@]1(CCS(=O)(=O)c2ccccc2)COC(c2ccc(OCCCO)cc2)=N1

>  <Measured value>
2.13

$$$$
>  <Molecule>
COCCOC(=O)N1C(=O)[C@@]2(c3ccccc31)[C@H](C(=O)N1CCc3cc(OC)c(OC)cc3C1)[C@H]1C(=O)O[C@H](c3ccccc3)[C@H](c3ccccc3)N1[C@@H]2c1ccccc1OCCO

>  <Measured value>
2.1

$$$$
>  <Molecule>
CC(C)C[C@@H]1NC(=O)[C@H](CC(C)C)NC(=O)[C@@]23C(=O)N[C@@H](Cc4ccccc4)C2[C@H](C)[C@@]2(C)O[C@H]2C3/C=C/CC/C=C/CNC1=O (some centres undefined)

>  <Measured value>
-0.239

$$$$

Provide each entry's z-score from the list below.
1. CO[C@H]1COC(=O)[C@H](C)COC(=O)[C@H](Cc2ccccc2)NC(=O)CC=C[C@H]1C
2. COc1cc2c(cc1OC)CN(C(=O)[C@H]1[C@@H]3C(=O)O[C@@H](c4ccccc4)[C@@H](c4ccccc4)N3[C@@H](c3ccccc3OCCO)[C@]13C(=O)Nc1ccc(C#CC4(O)CCCCCC4)cc13)CC2
3. COc1cccc([C@@H]2[C@@H](C)CC[C@H]3C(=O)N(C)[C@@H](C(C)C)C(=O)N23)c1
4. C#CCCCON=C1C[C@@H](O)[C@@H](O)[C@@H]2[C@@H]3C(=O)N(Cc4ccc5c(c4)OCO5)C(=O)[C@@H]3CC[C@H]12

Ans.
[0.261, 2.29, 1.1, 0.324]
